B1: TMEM120A (parent)
chain: YQSFVQFLQYYYQSGCLYRLRALG

Variants of: B1
Test: protein stability index of a GFP-peptide fusion (GPS, HEK-293T) (PSI 1-6); higher = more stable;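 also: lentivirally expressed fusions sorted by FACS into six bins by GFP to DsRed ratio, PSI derived from sequencing read proportions per bin multiplied by bin number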
Conditions: c terminus: a fixed tail appended
Listing of recorded protein stability index by entry.
observed.property: protein stability index

| mutant.label | assay.result |
| --- | --- |
| L23Y | 2.61 |
| S14R | 1.84 |
| Q13M | 4.22 |
| R19V | 1.95 |
| Y11W | 1.74 |
| G15W | 1.9 |
| Y12H | 2.51 |
| L8A | 3.44 |
| G24Y | 2.12 |
| Y18R | 1.85 |
| S14I | 3.42 |
| Q9L | 2.74 |
| F7I | 2.33 |
| Q13T | 1.8 |
| R21K | 2.17 |
| Y10H | 2.17 |
| L17C | 3.92 |
| Y10A | 1.83 |
| G24R | 2.65 |
| R19M | 1.97 |
| F7L | 3.51 |
| Q9A | 2.91 |
| Y10G | 3.01 |
